Target: hKv3.1b (Homo sapiens, UniProt P48547)
Construct: expressed in transfected cells
Sequence (P48547 1-585 isoform P48547-2): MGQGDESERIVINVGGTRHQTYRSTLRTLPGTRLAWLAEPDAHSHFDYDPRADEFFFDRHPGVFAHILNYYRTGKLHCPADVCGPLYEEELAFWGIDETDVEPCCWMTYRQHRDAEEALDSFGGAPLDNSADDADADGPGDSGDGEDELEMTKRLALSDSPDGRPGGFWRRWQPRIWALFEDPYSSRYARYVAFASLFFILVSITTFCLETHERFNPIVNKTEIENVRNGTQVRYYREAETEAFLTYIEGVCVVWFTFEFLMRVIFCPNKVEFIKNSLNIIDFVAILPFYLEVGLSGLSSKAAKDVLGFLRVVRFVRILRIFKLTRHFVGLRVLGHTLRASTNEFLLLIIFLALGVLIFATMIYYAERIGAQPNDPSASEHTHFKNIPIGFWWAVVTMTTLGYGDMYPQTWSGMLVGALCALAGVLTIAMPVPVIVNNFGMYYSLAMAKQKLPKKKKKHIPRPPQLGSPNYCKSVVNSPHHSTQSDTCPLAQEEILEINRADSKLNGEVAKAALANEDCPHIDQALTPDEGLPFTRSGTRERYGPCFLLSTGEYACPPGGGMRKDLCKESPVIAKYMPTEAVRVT
Assay: Automated whole-cell patch-clamp (QPatch-16x) on HEK-293 cells stably expressing hKv3.1b: shift of voltage threshold for channel activation
Format: cell-based
Conditions: maximum absolute shift of activation threshold to more hyperpolarized potentials at the tested concentrations (0.37, 1.11, 3.33, 10, 30 μM); HEK-293 hKv3.1b
QUANTITY: Max Delta threshold (mV)
Give bare numbers, in mV.

For each listed entry, give its Max Delta threshold.
1. Cc1ccc(S(=O)(=O)n2ccc(C(=O)NCc3cnn(C)c3)n2)cc1
2. COc1ccc(S(=O)(=O)n2ccc(C(=O)NCc3cnn(C)c3)n2)cc1
3. Cc1ccc(S(=O)(=O)n2ccc(C(=O)NCc3cncnc3)n2)cc1
4. Cc1cnc(CNC(=O)c2ccn(S(=O)(=O)c3ccc(C(F)(F)F)cc3)n2)cn1
5. Cc1ccc(S(=O)(=O)n2ccc(C(=O)NCc3cocn3)n2)cc1

1. 25
2. 25
3. 21
4. 23
5. 19

For each listed entry, give its Max Delta threshold.
1. Cc1cnc(CNC(=O)c2ccn(S(=O)(=O)c3ccc(F)c(Cl)c3)n2)cn1
2. Cc1ccc(CNC(=O)c2ccn(S(=O)(=O)c3ccc(F)cc3)n2)nc1
3. Cc1cccc(S(=O)(=O)n2ccc(C(=O)NCc3ccn(C)n3)n2)c1
4. Cc1ccc(S(=O)(=O)n2ccc(C(=O)NCc3nccs3)n2)cc1

1: 16; 2: 17; 3: 14; 4: 14

---

molecular target: hKv3.1b (Homo sapiens); construct: expressed in transfected cells; test: Automated whole-cell patch-clamp (QPatch-16x) on HEK-293 cells stably expressing hKv3.1b: shift of voltage threshold for channel activation; type: cell-based; conditions: concentration needed to shift the threshold 5 mV, read out from fitted concentration response curve; HEK-293 hKv3.1b
Decide using ECdelta5mV: a value greater than or equal to 2000 nM is yes (1), a smaller one is no (0).

# count of solved cases: 8
{"columns": ["COMPOUND STRUCTURE STRING", "ANSWER LABEL"],
 "data": [
  ["Cc1ccccc1S(=O)(=O)n1ccc(C(=O)NCc2cnn(C)c2)n1", "yes (1)"],
  ["Cc1ccc(S(=O)(=O)n2cc(C)c(C(=O)NCc3cnc(C)cn3)n2)cc1", "yes (1)"],
  ["Cc1cnc(CNC(=O)c2ccn(S(=O)(=O)c3cccc(Cl)c3)n2)cn1", "yes (1)"],
  ["COc1ccc(S(=O)(=O)n2ccc(C(=O)NCc3ncc(C)cn3)n2)cc1", "yes (1)"],
  ["COc1ccc(S(=O)(=O)n2ccc(C(=O)NCc3cnoc3)n2)cc1", "yes (1)"],
  ["Cc1ccc(S(=O)(=O)n2ccc(C(=O)NCc3nc(C)no3)n2)cc1", "no (0)"],
  ["Cc1cccc(S(=O)(=O)n2ccc(C(=O)NCc3cc(C)no3)n2)c1", "yes (1)"],
  ["COc1ccc(S(=O)(=O)n2ccc(C(=O)NCc3cnc(C)cn3)n2)cc1", "no (0)"]
]}

Does the reported ECdelta5mV for COc1ccc(S(=O)(=O)n2ccc(C(=O)NCc3ncccc3F)n2)cc1 fall at or above the 2000 nM mark?
yes (1)

Does the reported ECdelta5mV for COc1ccc(S(=O)(=O)n2ccc(C(=O)NCc3cncnc3)n2)cc1 fall at or above the 2000 nM mark?
yes (1)

Does the reported ECdelta5mV for Cc1noc(CNC(=O)c2ccn(S(=O)(=O)c3ccccc3C)n2)n1 fall at or above the 2000 nM mark?
yes (1)

Does the reported ECdelta5mV for Cc1cnc(CNC(=O)c2ccn(S(=O)(=O)c3ccc(C(F)(F)F)cc3)n2)cn1 fall at or above the 2000 nM mark?
yes (1)

Does the reported ECdelta5mV for Cc1cnc(CNC(=O)c2ccn(S(=O)(=O)c3ccc(C(F)F)cc3)n2)cn1 fall at or above the 2000 nM mark?
yes (1)

Does the reported ECdelta5mV for Cc1ccc(S(=O)(=O)n2ccc(C(=O)NCc3cnn(C)c3)n2)cc1 fall at or above the 2000 nM mark?
no (0)

Does the reported ECdelta5mV for COc1ccc(S(=O)(=O)n2ccc(C(=O)NCc3cnc(C)cn3)n2)cc1F fall at or above the 2000 nM mark?
yes (1)

---

Can you tell me Max Delta threshold for the items I'm about to list?
biological target: hKv3.1b (Homo sapiens); construct: expressed in transfected cells; assay: Automated whole-cell patch-clamp (QPatch-16x) on HEK-293 cells stably expressing hKv3.1b: shift of voltage threshold for channel activation; format: cell-based; details: maximum absolute shift of activation threshold to more hyperpolarized potentials at the tested concentrations (0.37, 1.11, 3.33, 10, 30 μM); HEK-293 hKv3.1b
One number for each entry, in mV.

{"columns": ["COMPOUND STRUCTURE STRING", "Max Delta threshold (mV)"],
 "data": [
  ["Cc1cnc(CNC(=O)c2ccn(S(=O)(=O)c3c(C)cc(F)cc3C)n2)cn1", 21],
  ["Cc1ccc(S(=O)(=O)n2ccc(C(=O)NCc3nc(C)cs3)n2)cc1", 19],
  ["Cc1cnc(CNC(=O)c2ccn(S(=O)(=O)c3cccc(Cl)c3)n2)cn1", 17],
  ["Cc1ccc(S(=O)(=O)n2ccc(C(=O)NCc3ncco3)n2)cc1", 15]
]}

For each listed entry, give its Max Delta threshold.
1. Cc1ccc(S(=O)(=O)n2ccc(C(=O)NCc3ccno3)n2)cc1
2. Cc1ccc(S(=O)(=O)n2ccc(C(=O)NCc3ccon3)n2)cc1
3. COc1ccc(S(=O)(=O)n2ccc(C(=O)NCc3cnoc3)n2)cc1
4. Cc1cnc(CNC(=O)c2ccn(S(=O)(=O)c3ccc(OC(F)F)cc3)n2)cn1
5. Cc1ccc(S(=O)(=O)n2ccc(C(=O)NCc3nc(C)no3)n2)cc1

[20, 17, 13, 25, 24]

---

molecular target: hKv3.1b (Homo sapiens); construct: expressed in transfected cells; experiment: Automated whole-cell patch-clamp (QPatch-16x) on HEK-293 cells stably expressing hKv3.1b: shift of voltage threshold for channel activation; format: cell-based; details: maximum absolute shift of activation threshold to more hyperpolarized potentials at the tested concentrations (0.37, 1.11, 3.33, 10, 30 μM); HEK-293 hKv3.1b
QUANTITY: Max Delta threshold (mV)
Numbers only, in mV.

{"columns": ["COMPOUND STRUCTURE STRING", "SUBJECT OF TEST", "UNIT", "Max Delta threshold"],
 "data": [
  ["COc1ccc(S(=O)(=O)n2ccc(C(=O)NCc3cc(C)no3)n2)cc1", "hKv3.1b (Homo sapiens)", "mV", 21]
]}

For each listed entry, give its Max Delta threshold.
1. COc1ccc(S(=O)(=O)n2ccc(C(=O)NCc3ncn(C)n3)n2)cc1
2. COc1ccc(S(=O)(=O)n2ccc(C(=O)NCc3ccc(C)cn3)n2)cc1
3. Cc1cc(CNC(=O)c2ccn(S(=O)(=O)c3ccc(F)cc3)n2)on1

16
21
13

Param item = Cc1ccc(S(=O)(=O)n2ccc(C(=O)NCc3cnc(C)cn3)n2)c(F)c1 ; retrieve measured Max Delta threshold.
31

---

Molecular target: hKv3.1b (Homo sapiens)
Construct: expressed in transfected cells
Assay: Automated whole-cell patch-clamp (QPatch-16x) on HEK-293 cells stably expressing hKv3.1b: shift of voltage threshold for channel activation
Assay type: cell-based
Settings: maximum absolute shift of activation threshold to more hyperpolarized potentials at the tested concentrations (0.37, 1.11, 3.33, 10, 30 μM); HEK-293 hKv3.1b
Protocol: HEK-293 cells stably expressing hKv3.1b was used for the experiments. Cells were cultured in DMEM medium supplemented with 10% Fetal Bovine Serum, 100 ug/mL Geneticidin and 100 u/mL Penicillin/Streptomycin (all from Gibco). Cells were grown to 80-90% confluency at 37° C. and 5% CO2. […] Leak subtraction protocol was applied at −33% of the sweep amplitude, and serial resistance values were constantly monitored. […]
Can you tell me Max Delta threshold for the items I'm about to list?
One number for each entry, in mV.

Below, 6 molecules whose answers are already recorded.
{"columns": ["MOLECULE", "Max Delta threshold, mV"],
 "data": [
  ["Cc1cnc(CNC(=O)c2ccn(S(=O)(=O)c3cc(C)c(F)c(C)c3)n2)cn1 [Compound 81]", 17],
  ["COc1ccc(S(=O)(=O)n2ccc(C(=O)NCc3cccnc3)n2)cc1 [Compound 64]", 24],
  ["COc1ccc(S(=O)(=O)n2ccc(C(=O)NCc3ccon3)n2)cc1 [Compound 8]", 16],
  ["Cc1cnc(CNC(=O)c2ccn(S(=O)(=O)c3ccc(Cl)cc3C)n2)cn1 [Compound 67]", 34],
  ["COc1ccc(S(=O)(=O)n2ccc(C(=O)NCc3cnc(C)cn3)n2)c(Cl)c1 [Compound 82]", 29],
  ["COc1ccc(S(=O)(=O)n2ccc(C(=O)NCc3nc(C)cs3)n2)cc1 [Compound 6]", 22]
]}

For each listed entry, give its Max Delta threshold.
1. COc1ccc(S(=O)(=O)n2ccc(C(=O)NCc3ccn(C)n3)n2)cc1 [Compound 44]
2. Cc1ccc(S(=O)(=O)n2ccc(C(=O)NCc3cn(C)cn3)n2)cc1 [Compound 53]
3. COc1ccc(S(=O)(=O)n2ccc(C(=O)NCc3cnccn3)n2)c(C)c1 [Compound 3]
4. Cc1ccc(S(=O)(=O)n2ccc(C(=O)NCc3cnsc3)n2)cc1 [Compound 33]
5. Cc1ccc(S(=O)(=O)n2ccc(C(=O)NCc3ncon3)n2)cc1 [Compound 57]
6. COc1ccc(S(=O)(=O)n2ccc(C(=O)NCc3cnc(C)cn3)n2)cc1F [Compound 74]
7. Cc1ccc(S(=O)(=O)n2ccc(C(=O)NCc3cnoc3)n2)cc1 [Compound 51]
8. Cc1ccc(CNC(=O)c2ccn(S(=O)(=O)c3cccc(C)c3)n2)nc1 [Compound 20]

1. 25
2. 20
3. 25
4. 12
5. 13
6. 17
7. 16
8. 12

For each listed entry, give its Max Delta threshold.
1. Cc1cnc(CNC(=O)c2ccn(S(=O)(=O)c3ccc(OC(F)(F)F)cc3)n2)cn1 [Compound 70]
2. Cc1ccc(S(=O)(=O)n2ccc(C(=O)NCc3ncc(C)o3)n2)cc1 [Compound 30]
3. Cc1ccc(S(=O)(=O)n2ccc(C(=O)NCc3ncn(C)n3)n2)cc1 [Compound 60]
4. COc1ccc(S(=O)(=O)n2ccc(C(=O)NCc3nc(C)no3)n2)cc1 [Compound 42]
5. Cc1cnc(CNC(=O)c2ccn(S(=O)(=O)c3ccccc3C)n2)nc1 [Compound 25]

1. 19
2. 15
3. 18
4. 18
5. 13

For each listed entry, give its Max Delta threshold.
1. COc1ccc(S(=O)(=O)n2ccc(C(=O)NCc3ncccc3F)n2)cc1 [Compound 86]
2. Cn1ccc(CNC(=O)c2ccn(S(=O)(=O)c3ccc(F)cc3)n2)n1 [Compound 35]
3. Cc1ccc(S(=O)(=O)n2ccc(C(=O)NCc3ccn(C)n3)n2)cc1 [Compound 39]

[19, 12, 21]
